Every entry's value here was drawn from patent US9029405B2.

Where a name gives a salt, the structure may show the parent alone.
Recorded endpoint: melting point (°C)

Cc1ccccc1-c1ccc(-c2nc(-c3ccc([C@H](C)N(C)CC(=O)O)cc3)no2)cc1C(F)(F)F (as salt: hydrochloride) | 221
Cc1ccccc1-c1ccc(-c2nc(-c3ccc([C@@H](C)N(C)CC(=O)O)cc3)no2)cc1C(F)(F)F (as salt: hydrochloride) | 221
Cc1cc(-c2nc(-c3cccc(C(C)NCC(=O)O)c3)no2)ccc1-c1ccccc1C(F)(F)F (centres unmarked) (as salt: hydrochloride) | 176
Cc1ccccc1-c1ccc(-c2nc(-c3ccc(C(C)N(C)CC(=O)O)cc3)no2)cc1C(F)(F)F (centres unmarked) (as salt: hydrochloride) | 204
Cc1cc(-c2nc(-c3ccc([C@H](C)N(C)CC(=O)O)cc3)no2)ccc1-c1ccccc1C(F)(F)F (as salt: hydrochloride) | 217
Cc1cc(-c2nc(-c3ccc([C@@H](C)N(C)CC(=O)O)cc3)no2)ccc1-c1ccccc1C(F)(F)F (as salt: hydrochloride) | 217
Cc1ccccc1-c1ccc(-c2nc(-c3cccc(C(C)NCC(=O)O)c3)no2)cc1C(F)(F)F (centres unmarked) (as salt: hydrochloride) | 177
CCC(NCc1ccc(-c2noc(-c3ccc(-c4ccccc4C)c(C(F)(F)F)c3)n2)cc1F)C(=O)O (centres unmarked) (as salt: hydrochloride) | 214
